This collection of values is drawn from ChEMBL document CHEMBL4145649.

pIC50 by entry:
target: Cytochrome P450 2E1 (Homo sapiens, UniProt P05181)
Sequence (P05181 whole entry): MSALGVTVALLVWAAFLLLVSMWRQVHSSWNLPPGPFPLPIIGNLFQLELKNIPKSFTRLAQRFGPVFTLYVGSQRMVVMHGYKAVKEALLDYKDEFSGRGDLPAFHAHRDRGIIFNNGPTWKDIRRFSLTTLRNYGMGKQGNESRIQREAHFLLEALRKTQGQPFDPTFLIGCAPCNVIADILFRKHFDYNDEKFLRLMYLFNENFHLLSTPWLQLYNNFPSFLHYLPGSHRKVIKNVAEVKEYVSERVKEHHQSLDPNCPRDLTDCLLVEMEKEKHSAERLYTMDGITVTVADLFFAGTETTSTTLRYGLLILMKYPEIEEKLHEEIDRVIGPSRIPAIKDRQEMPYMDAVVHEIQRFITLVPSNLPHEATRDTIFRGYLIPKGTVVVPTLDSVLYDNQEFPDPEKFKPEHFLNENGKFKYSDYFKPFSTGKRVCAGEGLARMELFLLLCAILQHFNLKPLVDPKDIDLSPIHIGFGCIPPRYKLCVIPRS
Bear in mind: pIC50 is minus log10 of a mol/L concentration; give just that figure.

>>> recorded_measurement("Cc1ccncc1C#CCN.Cl.Cl")
4.72

INPUT: Requested read-out pIC50, target or system Cytochrome P450 2E1 (Homo sapiens, UniProt P05181), entry Cl.Cl.Cl.NCc1ccc(-c2cnccc2-c2ccncc2)s1
OUTPUT: 4.51

INPUT: Requested read-out pIC50, target or system Cytochrome P450 2E1 (Homo sapiens, UniProt P05181), entry COc1ccncc1C#CCN
OUTPUT: 4.74

INPUT: Requested read-out pIC50, target or system Cytochrome P450 2E1 (Homo sapiens, UniProt P05181), entry CCc1ccncc1C#CCN.Cl.Cl
OUTPUT: 4.82

INPUT: Requested read-out pIC50, target or system Cytochrome P450 2E1 (Homo sapiens, UniProt P05181), entry NCc1ccc(-c2cnccc2-c2ccco2)s1
OUTPUT: 5.51

----------
This section lists pIC50 readings for Cytochrome P450 2D6 (Homo sapiens).
Bear in mind: pIC50 is minus log10 of a mol/L concentration; give just that figure.

// below: answered compounds
>>> recorded_measurement("Cc1ccncc1C#CCN.Cl.Cl")
5.62
>>> recorded_measurement("Cl.Cl.Cl.NCC#Cc1cnccc1-c1ccncc1")
4.92

Query compound follows.
INPUT: Which pIC50 value is on record for CCc1ccncc1C#CCN.Cl.Cl ?
OUTPUT: 5.18

----------
Biological target: Cytochrome P450 2C8 (Homo sapiens)
Sequence (P10632 whole entry): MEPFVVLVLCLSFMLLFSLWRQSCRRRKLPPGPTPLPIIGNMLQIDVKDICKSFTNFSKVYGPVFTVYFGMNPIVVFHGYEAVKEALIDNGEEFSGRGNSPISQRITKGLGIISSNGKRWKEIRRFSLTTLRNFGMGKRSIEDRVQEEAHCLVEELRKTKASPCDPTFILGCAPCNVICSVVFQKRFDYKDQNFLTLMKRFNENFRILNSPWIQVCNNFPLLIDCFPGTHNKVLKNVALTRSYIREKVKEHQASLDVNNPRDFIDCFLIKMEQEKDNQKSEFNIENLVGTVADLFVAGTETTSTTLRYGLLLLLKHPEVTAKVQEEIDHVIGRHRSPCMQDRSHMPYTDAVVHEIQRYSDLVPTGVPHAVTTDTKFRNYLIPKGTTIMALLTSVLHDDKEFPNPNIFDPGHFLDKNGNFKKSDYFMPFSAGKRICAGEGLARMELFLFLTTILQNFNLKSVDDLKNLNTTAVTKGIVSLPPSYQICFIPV
IC50 by entry:

// below: answered compounds
>>> recorded_measurement("Cl.Cl.Cl.Cl.NCc1ccc(-c2cnccc2-c2cncnc2)s1")
"> 25 µM"
>>> recorded_measurement("COc1ccncc1C#CCN")
"> 50 µM"

INPUT: Which IC50 value is on record for Cl.Cl.Cl.NCc1ccc(-c2cnccc2-c2ccncc2)s1 ?
OUTPUT: > 25 µM

----------
This section lists IC50 readings for Cytochrome P450 2B6 (Homo sapiens, UniProt P20813).

// below: answered compounds
>>> recorded_measurement("NCC#Cc1cnccc1-c1cncnc1")
"> 25 µM"
>>> recorded_measurement("Cl.Cl.Cl.Cl.NCc1ccc(-c2cnccc2-c2cncnc2)o1")
"> 25 µM"

Query compound follows.
INPUT: Requested read-out IC50, target or system Cytochrome P450 2B6 (Homo sapiens, UniProt P20813), entry Cl.Cl.Cl.NCC#Cc1cnccc1-c1ccncc1
OUTPUT: > 25 µM
